// data source = ChEMBL document CHEMBL1123414

Below, each entry is listed alongside its reported Displacement.
Target: Muscarinic acetylcholine receptor M3 (Rattus norvegicus) (UniProt P08483)
Sequence (P08483 whole entry, looked up): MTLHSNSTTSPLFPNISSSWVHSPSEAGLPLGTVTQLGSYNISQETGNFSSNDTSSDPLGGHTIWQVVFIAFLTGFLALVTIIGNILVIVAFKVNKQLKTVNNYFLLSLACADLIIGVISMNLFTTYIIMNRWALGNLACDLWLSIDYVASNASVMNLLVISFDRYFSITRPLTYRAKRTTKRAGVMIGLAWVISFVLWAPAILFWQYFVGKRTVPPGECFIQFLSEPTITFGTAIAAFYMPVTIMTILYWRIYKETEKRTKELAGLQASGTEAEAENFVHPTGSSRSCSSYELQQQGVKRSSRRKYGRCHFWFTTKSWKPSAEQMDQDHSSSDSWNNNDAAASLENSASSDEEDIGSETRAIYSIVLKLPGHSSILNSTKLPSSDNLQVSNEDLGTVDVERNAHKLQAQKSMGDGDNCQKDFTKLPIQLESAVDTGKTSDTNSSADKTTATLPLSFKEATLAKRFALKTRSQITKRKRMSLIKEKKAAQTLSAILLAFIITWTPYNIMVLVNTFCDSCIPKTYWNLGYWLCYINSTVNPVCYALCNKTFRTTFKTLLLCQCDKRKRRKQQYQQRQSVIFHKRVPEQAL
Assay: Compound was tested in vitro for its ability to displace [3H]-QNB from brain Muscarinic acetylcholine receptor
property.label: Displacement (%)

{"mol": "CC(C)C[N+]1(CCO)CC1", "result.unit": "%", "number": 6}
{"mol": "CCCC[N+]1(CCO)CC1", "result.unit": "%", "number": 9}
{"mol": "CCC[N+]1(CCO)CC1", "result.unit": "%", "number": 16}
{"mol": "CC[N+]1(CCO)CC1", "result.unit": "%", "number": 18}

###

Some compounds, each annotated with its measured pIC50.
Molecular target: High affinity choline transporter 1 (Mus musculus)
Sequence (Q8BGY9 whole entry): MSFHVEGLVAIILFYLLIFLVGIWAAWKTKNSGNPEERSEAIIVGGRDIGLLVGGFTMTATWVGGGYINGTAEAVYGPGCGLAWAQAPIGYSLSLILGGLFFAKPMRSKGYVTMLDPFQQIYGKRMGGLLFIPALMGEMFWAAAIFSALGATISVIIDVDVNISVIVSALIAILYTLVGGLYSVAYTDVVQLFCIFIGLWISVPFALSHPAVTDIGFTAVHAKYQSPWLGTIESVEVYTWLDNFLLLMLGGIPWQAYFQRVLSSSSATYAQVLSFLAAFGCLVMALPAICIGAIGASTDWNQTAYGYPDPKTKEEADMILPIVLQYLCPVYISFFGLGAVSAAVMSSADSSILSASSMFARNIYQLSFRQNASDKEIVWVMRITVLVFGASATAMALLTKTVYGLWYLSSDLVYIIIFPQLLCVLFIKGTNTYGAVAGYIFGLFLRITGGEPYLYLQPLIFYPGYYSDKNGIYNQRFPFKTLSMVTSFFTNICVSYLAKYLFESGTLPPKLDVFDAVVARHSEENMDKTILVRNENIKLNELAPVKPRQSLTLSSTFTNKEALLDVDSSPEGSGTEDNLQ
pIC50: −log10 of the molar value.
property.label: pIC50

{"compound": "CCCC[N+]1(CCO)CC1", "reported.relation": "<", "number": 3.00}
{"compound": "CC[N+]1(CCO)CC1", "reported.relation": "=", "number": 5.82}
{"compound": "CC(C)C[N+]1(CCO)CC1", "reported.relation": "=", "number": 4.51}
{"compound": "CCC[N+]1(CCO)CC1", "reported.relation": "=", "number": 5.12}
{"compound": "C[N+](C)(C)CCO [CHOLINE]", "reported.relation": "=", "number": 5.80}
